Biological target: human β2-AR (Homo sapiens, UniProt P07550, E27Q/G16R)
Sequence (P07550 whole entry G16R/E27Q): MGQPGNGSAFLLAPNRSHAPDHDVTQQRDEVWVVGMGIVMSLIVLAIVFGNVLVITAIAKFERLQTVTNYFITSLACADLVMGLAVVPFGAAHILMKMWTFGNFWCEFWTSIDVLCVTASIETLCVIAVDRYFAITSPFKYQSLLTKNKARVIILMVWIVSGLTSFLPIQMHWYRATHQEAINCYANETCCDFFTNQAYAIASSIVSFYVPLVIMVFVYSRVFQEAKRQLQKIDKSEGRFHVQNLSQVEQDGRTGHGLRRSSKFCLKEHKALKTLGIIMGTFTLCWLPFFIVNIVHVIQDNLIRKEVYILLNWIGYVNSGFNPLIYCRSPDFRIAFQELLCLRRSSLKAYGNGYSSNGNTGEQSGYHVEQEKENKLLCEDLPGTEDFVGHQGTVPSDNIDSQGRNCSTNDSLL
Experiment: cAMP accumulation in CHO-K1 cells expressing human β2-AR
Conditions: EC50 β2-AR, CHO-K1, TF 0.1 μg/well plasmid DNA, cAMP accumulation
Task for the reader: assign each of the following molecules its reported pEC50.
When answering, recall that pEC50 equals minus log10 of the concentration in mol/L, and write that number alone.

Look up and state reported pEC50 for Nc1nc(CC(=O)Nc2ccc(CCNC[C@H](O)c3ccccc3)cc2)cs1 [Mirabegron, mirabegron]
6.24

Answer with reported pEC50 of Cc1cc(OCC(=O)O)c(C)cc1CCN[C@@H](C)[C@H](O)c1ccc(O)cc1 [Ritobegron, ritobegron]
5.64

====

For each entry below, report its β3-AR selectivity vs β2-AR value.
Molecular target: human β3-AR (Homo sapiens)
Test: cAMP accumulation in CHO-K1 cells expressing human β3-AR
Settings: comparison between EC50 values, TF 0.1 μg/well
Write the number on its own, no unit after it.

For the compound Nc1nc(CC(=O)Nc2ccc(CCNC[C@H](O)c3ccccc3)cc2)cs1 , report β3-AR selectivity vs β2-AR.
496

State its β3-AR selectivity vs β2-AR: Cc1cc(OCC(=O)O)c(C)cc1CCN[C@@H](C)[C@H](O)c1ccc(O)cc1
28.1

====

Target: human β3-AR (Homo sapiens)
Experiment: cAMP accumulation in CHO-K1 cells expressing human β3-AR
Settings: TF 0.05 μg/well, 222 fmol/mg
assayReadout: log10(Iso50) (log10 of the value in nM)
Please keep in mind that the values are log10 of Iso50 expressed in nM.

Provide log10(Iso50), recorded with human β3-AR (Homo sapiens), of O=C(Nc1ccc(C[C@@H]2CC[C@H]([C@H](O)c3ccccc3)N2)cc1)[C@@H]1CCc2nccc(=O)n21 [Vibegron]
0.57

Consider the compound Cc1cc(OCC(=O)O)c(C)cc1CCN[C@@H](C)[C@H](O)c1ccc(O)cc1 [Ritobegron, ritobegron] tested on human β3-AR (Homo sapiens); state its log10(Iso50).
2.48

Please respond with reported log10(Iso50) (system human β3-AR (Homo sapiens)) for Nc1nc(CC(=O)Nc2ccc(CCNC[C@H](O)c3ccccc3)cc2)cs1 [Mirabegron, mirabegron] .
0.65

// fetch log10(Iso50); item: CC(C)NC[C@H](O)c1ccc(O)c(O)c1 [Isoproterenol, (–)-isoprenaline (+)-bitartrate] ; system: human β3-AR (Homo sapiens)
1.58

Quote log10(Iso50) with test system human β3-AR (Homo sapiens) for O=C(O)c1cccc(-c2cccc(NCCNC[C@H](O)c3cccc(Cl)c3)c2)c1 [Solabegron, solabegron]
2.08

====

Molecular target: human β1-AR (Homo sapiens)
Construct: expressed in transfected cells; host or cells: CHO-K1 cells, transient transfection with pCI-Neo plasmid (Lipofectamine 2000)
Sequence (P08588 whole entry): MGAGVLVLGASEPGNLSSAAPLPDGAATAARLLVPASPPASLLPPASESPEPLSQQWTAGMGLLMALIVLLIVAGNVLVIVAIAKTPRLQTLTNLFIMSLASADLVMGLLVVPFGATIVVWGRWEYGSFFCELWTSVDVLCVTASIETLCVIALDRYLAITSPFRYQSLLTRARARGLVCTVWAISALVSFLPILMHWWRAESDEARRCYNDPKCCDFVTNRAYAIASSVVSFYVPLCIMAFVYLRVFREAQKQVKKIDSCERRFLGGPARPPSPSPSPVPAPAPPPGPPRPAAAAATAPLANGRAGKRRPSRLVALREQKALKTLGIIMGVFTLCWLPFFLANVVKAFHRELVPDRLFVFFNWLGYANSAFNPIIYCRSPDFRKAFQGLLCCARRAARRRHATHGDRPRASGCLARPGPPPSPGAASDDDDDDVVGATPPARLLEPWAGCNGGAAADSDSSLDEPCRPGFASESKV
Assay: cAMP accumulation in CHO-K1 cells expressing human β1-AR
Type: cell-based
Details: CHO-K1, TF 0.1 μg/well plasmid DNA, cAMP accumulation; read-out: EC50 β1-AR
assayReadout: EC50 (nM)
Write the number in nM without appending the unit.

In one line, give reported EC50 of the entry Nc1nc(CC(=O)Nc2ccc(CCNC[C@H](O)c3ccccc3)cc2)cs1 .
594

Please supply the value of reported EC50 for the item O=C(O)c1cccc(-c2cccc(NCCNC[C@H](O)c3cccc(Cl)c3)c2)c1
588

====

Biological target: human β3-AR (Homo sapiens, UniProt P13945)
Sequence (P13945 whole entry): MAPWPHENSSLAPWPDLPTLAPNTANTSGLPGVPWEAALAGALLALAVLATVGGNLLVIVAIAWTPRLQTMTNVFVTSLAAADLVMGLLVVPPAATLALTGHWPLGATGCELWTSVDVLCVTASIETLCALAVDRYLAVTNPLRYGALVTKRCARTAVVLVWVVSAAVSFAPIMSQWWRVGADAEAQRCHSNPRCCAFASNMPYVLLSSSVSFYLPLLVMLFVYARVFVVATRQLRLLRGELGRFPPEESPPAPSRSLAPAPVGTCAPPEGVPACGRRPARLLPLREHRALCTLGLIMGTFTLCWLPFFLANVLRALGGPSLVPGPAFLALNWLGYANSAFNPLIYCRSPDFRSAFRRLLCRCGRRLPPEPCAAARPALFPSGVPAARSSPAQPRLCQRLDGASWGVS
Assay: cAMP accumulation in CHO-K1 cells expressing human β3-AR
Conditions: TF 0.1 μg/well, 347 fmol/mg; concentration producing 50% of the maximal response induced by isoproterenol
Provide the reported Iso50 of each item.
Kindly answer with a numeric value in nM, unit omitted.

Please indicate recorded Iso50 of Nc1nc(CC(=O)Nc2ccc(CCNC[C@H](O)c3ccccc3)cc2)cs1 [Mirabegron, mirabegron] measured with human β3-AR (Homo sapiens, UniProt P13945).
1.32

Retrieve Iso50 on human β3-AR (Homo sapiens, UniProt P13945); query Cc1cc(OCC(=O)O)c(C)cc1CCN[C@@H](C)[C@H](O)c1ccc(O)cc1 [Ritobegron, ritobegron]
81.5

Please look at O=C(Nc1ccc(C[C@@H]2CC[C@H]([C@H](O)c3ccccc3)N2)cc1)[C@@H]1CCc2nccc(=O)n21 [Vibegron] and tell me its recorded Iso50 on human β3-AR (Homo sapiens, UniProt P13945).
1.26

Quote Iso50 with test system human β3-AR (Homo sapiens, UniProt P13945) for O=C(O)c1cccc(-c2cccc(NCCNC[C@H](O)c3cccc(Cl)c3)c2)c1 [Solabegron, solabegron]
31.0

Specify Iso50 for CC(C)NC[C@H](O)c1ccc(O)c(O)c1 [Isoproterenol, (–)-isoprenaline (+)-bitartrate] , system human β3-AR (Homo sapiens, UniProt P13945).
11.8

====

Biological target: UniProtKB P13945
Test: cAMP accumulation in CHO-K1 cells expressing human β3-AR
Settings: EC50 β3-AR, CHO-K1, TF 0.1 μg/well plasmid DNA, cAMP accumulation
assayReadout: EC50 (nM)
Supply the numeric figure in nM, leaving out any unit text.

Tell me measured EC50 for O=C(Nc1ccc(C[C@@H]2CC[C@H]([C@H](O)c3ccccc3)N2)cc1)[C@@H]1CCc2nccc(=O)n21 please.
1.26

Please list EC50 recorded for the compound Nc1nc(CC(=O)Nc2ccc(CCNC[C@H](O)c3ccccc3)cc2)cs1
1.15

Tell me EC50 reported for Cc1cc(OCC(=O)O)c(C)cc1CCN[C@@H](C)[C@H](O)c1ccc(O)cc1
80.8

Kindly indicate its recorded EC50. Item: O=C(O)c1cccc(-c2cccc(NCCNC[C@H](O)c3cccc(Cl)c3)c2)c1
27.6

====

Target: human β2-AR (Homo sapiens, UniProt P07550, E27Q/G16R)
Assay: cAMP accumulation in CHO-K1 cells expressing human β2-AR
Details: EC50 in cells expressing β2-ARs, TF 0.1 μg/well
pEC50: −log10 of the molar value.
assayReadout: pEC50

Provide only the value of recorded pEC50 for O=C(Nc1ccc(C[C@@H]2CC[C@H]([C@H](O)c3ccccc3)N2)cc1)[C@@H]1CCc2nccc(=O)n21 [Vibegron]
< 5.00

====

Biological target: human β3-AR (Homo sapiens, UniProt P13945)
Experiment: cAMP accumulation in CHO-K1 cells expressing human β3-AR
Details: comparison between EC50 values, TF 0.1 μg/well
Kindly supply the reported β3-AR selectivity vs β1-AR values for the records listed here.
Respond with the number and no other words.

Please report β3-AR selectivity vs β1-AR for the following compound: Nc1nc(CC(=O)Nc2ccc(CCNC[C@H](O)c3ccccc3)cc2)cs1
517

Give reported β3-AR selectivity vs β1-AR value for O=C(O)c1cccc(-c2cccc(NCCNC[C@H](O)c3cccc(Cl)c3)c2)c1
21.3

====

Molecular target: human β3-AR (Homo sapiens, UniProt P13945)
Assay: cAMP accumulation in CHO-K1 cells expressing human β3-AR;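 also: CHO-K1 cells transiently transfected with a β-AR expression plasmid, cAMP assayed roughly 24 h post-transfection, values derived from agonist concentration–response curves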
Details: EC50 β3-AR, TF 0.025 μg/well
For each record, write down the corresponding pEC50.
Please note pEC50 is a logarithmic value: minus log10 of concentration in mol/L. Answer with that number alone.

Give pEC50 for Nc1nc(CC(=O)Nc2ccc(CCNC[C@H](O)c3ccccc3)cc2)cs1
8.38

Note pEC50 for the compound shown: O=C(Nc1ccc(C[C@@H]2CC[C@H]([C@H](O)c3ccccc3)N2)cc1)[C@@H]1CCc2nccc(=O)n21
7.90

Output measured pEC50 for this item: O=C(O)c1cccc(-c2cccc(NCCNC[C@H](O)c3cccc(Cl)c3)c2)c1
7.08

Annotate the compound Cc1cc(OCC(=O)O)c(C)cc1CCN[C@@H](C)[C@H](O)c1ccc(O)cc1 with its measured pEC50.
5.82

====

Molecular target: human β2-AR (Homo sapiens, UniProt P07550, E27Q/G16R)
Assay: cAMP accumulation in CHO-K1 cells expressing human β2-AR
Conditions: EC50 β2-AR, TF 0.025 μg/well
assayReadout: EC50

Please report EC50 with human β2-AR (Homo sapiens, UniProt P07550, E27Q/G16R) for item Cc1cc(OCC(=O)O)c(C)cc1CCN[C@@H](C)[C@H](O)c1ccc(O)cc1 .
> 10 µM

Provide EC50, recorded with human β2-AR (Homo sapiens, UniProt P07550, E27Q/G16R), of O=C(Nc1ccc(C[C@@H]2CC[C@H]([C@H](O)c3ccccc3)N2)cc1)[C@@H]1CCc2nccc(=O)n21
> 10 µM

State EC50 (human β2-AR (Homo sapiens, UniProt P07550, E27Q/G16R)) of O=C(O)c1cccc(-c2cccc(NCCNC[C@H](O)c3cccc(Cl)c3)c2)c1 .
> 10 µM

For human β2-AR (Homo sapiens, UniProt P07550, E27Q/G16R), give EC50 of the listed molecule: Nc1nc(CC(=O)Nc2ccc(CCNC[C@H](O)c3ccccc3)cc2)cs1
> 10 µM
